Tested on: SR leukemia
Experimental details: NCI tumour cell line growth inhibition, 48 h
Readout name: GI50

| Compound | Measurement |
| --- | --- |
| NCc1ccc(-n2c(-c3nonc3N)nc3cnccc32)cc1 | 2.67 µM |
| COc1cc2cc(Oc3ccc(NC(=O)c4ccc(Cl)c(C(F)(F)F)c4)cc3)c(C)nc2cc1OC | 14.3 µM |
| COc1ccc2c(c1)nc(N)c1c3cccnc3cn21 | 0.0339 µM |
| Cn1cc(-c2ccc3c(c2)CCN3C(=O)Cc2cccc(C(F)(F)F)c2)c2c(N)ncnc21 | 2.38 µM |
| Fc1ccc(Nc2nccc(-c3c(-c4ccc(C(F)(F)F)cc4)nn4ncccc34)n2)cc1F | > 25 µM |
| Nc1nc(Nc2cccc(F)c2)nc2ccccc12 | 24.7 µM |
| CCc1c[nH]c2ncnc(N3CC[C@@](N)(CNC(=O)c4ccc(F)cc4F)C3)c12 | 16.4 µM |
| Cc1cc(N2CCCC2)nc(N(CCCNc2ccnc3cc(Cl)ccc23)Cc2ccc3c(c2)OCO3)n1 | 0.152 µM |

Consider the additional compound presented here.
QUERY: Given C=C(C)CCC(C)N1CCC(N2CCC(C(=O)NCCc3ccccc3)CC2)CC1 (centres undefined) , state its recorded GI50.
RESULT: 12.3 µM
